- Test Target: BCL6 (Homo sapiens (Human), UniProt P41182)
- Run Description: Immunofluorescence high content imaging of BCL6 degradation in T47D cells
- Type: cell-based
- Measurement Conditions: T47D cells
- Experimental: Immunofluorescence Protocol for High Cotent Imaging of BCL6 T47D cells were seeded in 100 μl volume of RPMI1640-10% FBS in a 96-well black/clear bottom plates for adherent lines (Corning #3904). Day 1. T47D breast cancer epithelial cells were seeded at a density so that confluence is ˜70-90% at endpoint. Cells were seeded at 7K/0.1 ml/well the morning prior to the addition of exemplary bifunctional degradation compounds. Day 2. […] Plates were equilibrated to room temperature prior to reading. […]
Observation Type: Dmax

CNC(=O)COc1cc2cc(Nc3nc(N4CCN(CC5CCN(c6ccc7c(c6)C(=O)N(C6CCC(=O)NC6=O)C7=O)CC5)CC4)ncc3Cl)ccc2n(C2CC2)c1=O (stereo not drawn) [compound 323]	≥ 70%
CNC(=O)COc1cc2cc(Nc3nc(N4CCC(OC5CC6(CCN(c7cccc8c7C(=O)N(C7CCC(=O)NC7=O)C8=O)CC6)C5)CC4)ncc3Cl)ccc2n(C(C)C)c1=O (stereo not drawn) [compound 391]	≥ 70%
CCn1c(=O)c(OCC(=O)NC)cc2cc(Nc3nc(N4CCN(CC5CCN(c6ccc(C(=O)NC7CCC(=O)NC7=O)c(OC)c6)CC5)CC4)ncc3Cl)ccc21 (stereo not drawn) [compound 375]	50 to 70%
CCn1c(=O)c(OCC(=O)NC)cc2cc(Nc3nc(N4CCC(COC5CCN(c6ccc7c(c6)C(=O)N(C6CCC(=O)NC6=O)C7=O)CC5)CC4)ncc3Cl)ccc21 (stereo not drawn) [compound 331]	< 50%
CNC(=O)COc1cc2cc(Nc3nc(N4CCN(CC5(F)CCN(c6ccc7c(c6)C(=O)N(C6CCC(=O)NC6=O)C7=O)CC5)CC4)ncc3Cl)ccc2n(C)c1=O (stereo not drawn) [compound 339]	50 to 70%
CNC(=O)COc1cc2cc(Nc3nc(N4CCC[C@H](COc5cccc6c5C(=O)N(C5CCC(=O)NC5=O)C6=O)C4)ncc3Cl)ccc2n(C2CC2)c1=O (stereo partly drawn) [compound 336]	50 to 70%
CNC(=O)COc1cc2cc(Nc3nc(N4CC5(CCN(CC6CCN(c7cccc8c7C(=O)N(C7CCC(=O)NC7=O)C8=O)CC6)CC5)C4)ncc3Cl)ccc2n(C(C)C)c1=O (stereo not drawn) [compound 426]	≥ 70%
CNC(=O)COc1cc2cc(Nc3nc(N4CCC(OC5CC6(CCN(c7ccc(C(=O)NC8CCC(=O)NC8=O)c(OC)c7)CC6)C5)CC4)ncc3Cl)ccc2n(C(C)C)c1=O (stereo not drawn) [compound 432]	≥ 70%
CNC(=O)COc1cc2cc(Nc3nc(N4CCC(OC5CCC6(CC5)CN(c5ccc7c(c5)C(=O)N(C5CCC(=O)NC5=O)C7=O)C6)CC4)ncc3Cl)ccc2n(C(C)C)c1=O (stereo not drawn) [compound 421]	≥ 70%
CNC(=O)COc1cc2cc(Nc3nc(N4CCN(CC5CCN(c6cc(F)c(C(=O)NC7CCC(=O)NC7=O)c(OC)c6)CC5)CC4)ncc3Cl)ccc2n(C)c1=O (stereo not drawn) [compound 354]	50 to 70%
CNC(=O)COc1cc2cc(Nc3nc(N4CCN(CC5CCN(c6cccc(C(=O)NC7CCC(=O)NC7=O)c6OC)CC5)CC4)ncc3Cl)ccc2n(C)c1=O (stereo not drawn) [compound 325]	50 to 70%
CNC(=O)COc1cc2cc(Nc3nc(N4CCN(CC5CCN(c6cccc(C(=O)NC7CCC(=O)NC7=O)n6)CC5)CC4)ncc3Cl)ccc2n(C)c1=O (stereo not drawn) [compound 320]	< 50%
CNC(=O)COc1cc2cc(Nc3nc(N4CCC(O[C@H]5C[C@H](N6CCC(c7cccc8c7C(=O)N(C7CCC(=O)NC7=O)C8=O)CC6)C5)CC4)ncc3Cl)ccc2n(C(C)C)c1=O (stereo partly drawn) [compound 409]	50 to 70%
CNC(=O)COc1cc2cc(Nc3nc(N4CCC5(CC4)CN(CC4CCN(c6ccc7c(c6)C(=O)N(C6CCC(=O)NC6=O)C7=O)CC4)C5)ncc3Cl)ccc2n(C(C)C)c1=O (stereo not drawn) [compound 384]	≥ 70%
CNC(=O)COc1cc2cc(Nc3nc(N4C[C@@H](COc5ccc6c(c5)C(=O)N(C5CCC(=O)NC5=O)C6=O)O[C@H](C)C4)ncc3Cl)ccc2n(C(C)C)c1=O (stereo partly drawn) [compound 382]	50 to 70%
CNC(=O)COc1cc2cc(Nc3nc(N4CCC(CN5CC6(CCN(c7ccc(C(=O)NC8CCC(=O)NC8=O)c(OC)c7)CC6)C5)CC4)ncc3Cl)ccc2n(C(C)C)c1=O (stereo not drawn) [compound 438]	≥ 70%
CCN(C1CCN(c2ccc3c(c2)C(=O)N(C2CCC(=O)NC2=O)C3=O)CC1)C1CCN(c2ncc(Cl)c(Nc3ccc4c(c3)cc(OCC(=O)NC)c(=O)n4C)n2)CC1 (stereo not drawn) [compound 326]	50 to 70%
CNC(=O)COc1cc2cc(Nc3nc(N4C[C@@H](C)N(CC5CCN(c6cccc(C(=O)NC7CCC(=O)NC7=O)c6F)CC5)[C@@H](C)C4)ncc3Cl)ccc2n(C)c1=O (stereo partly drawn) [compound 355]	50 to 70%
CNC(=O)COc1cc2cc(Nc3nc(N4CCC(CN5CCC(c6ccc7c(c6)C(=O)N(C6CCC(=O)NC6=O)C7=O)CC5)CC4)ncc3Cl)ccc2n(C(C)C)c1=O (stereo not drawn) [compound 365]	≥ 70%
CNC(=O)COc1cc2cc(Nc3nc(N4CCN(CCN5CCN(c6cccc7c6C(=O)N(C6CCC(=O)NC6=O)C7=O)CC5)CC4)ncc3Cl)ccc2n(C)c1=O (stereo not drawn) [compound 321]	50 to 70%
CNC(=O)COc1cc2cc(Nc3nc(N4CCC(CN5[C@H](C)CN(c6ccc(C(=O)NC7CCC(=O)NC7=O)c(OC)c6)C[C@@H]5C)CC4)ncc3Cl)ccc2n(C)c1=O (stereo partly drawn) [compound 347]	50 to 70%
